# Test method notes: Inhibition of HIV1 reverse transcriptase K103N/Y188C double mutant infected in human MT4 cells assessed as protection against virus-induced cytopathic effect measured after 4 days by MTT assay
Measured quantity: EC50

{"columns": ["Smiles string", "Reading"],
 "data": [
  ["N#Cc1ccc(Nc2nccc(Oc3ccc4ccccc4c3Br)n2)cc1", "6.57 µM"]
]}

Continue with the compound presented below.
Problem: Output measured EC50 for this item: `N#Cc1ccc(Nc2nccc(Oc3ccc4cc(C#N)ccc4c3Br)n2)cc1`
Result: 0.24 µM

###

# Study target: recombinant HIV1 reverse transcriptase Y188L mutant
# Test method notes: Inhibition of recombinant HIV1 reverse transcriptase Y188L mutant
pIC50: −log10 of the molar value.
Measured quantity: pIC50

Problem: Identify pIC50 associated with the molecule `Cc1cc(C)c(Nc2ccnc(Nc3ccc(C(N)=O)cc3)n2)c(C)c1`
Result: > 5.00

###

# Test method notes: Inhibition of HIV1 LAI reverse transcriptase infected in human MT4 cells assessed as protection against virus-induced cytopathic effect by MTT assay
Measured quantity: IC50 (nM)
Entry rule: numbers only, all in nM.

{"columns": ["Smiles string", "IC50 (nM)"],
 "data": [
  ["Cc1cc(C)c(Nc2nc(Nc3ccc(C#N)cc3)ncc2-c2ccccc2)c(C)c1", 24],
  ["N#Cc1ccc(Nc2nc(N)nc(Cc3c(Cl)cccc3Cl)n2)cc1", 6],
  ["Cc1cc(C#N)cc(C)c1Nc1ccnc(Nc2ccc(C#N)cc2)n1", 0.4],
  ["Cc1cc(C#N)cc(C)c1Oc1nc(Nc2ccc(C#N)cc2)ncc1N", 1]
]}

Problem: Entry `Cc1cc(C#N)cc(C)c1Oc1nc(Nc2ccc(C#N)cc2)ncc1[N+](=O)[O-]` needs its IC50 filled in; supply it.
Result: 18

Problem: Give the measured IC50 for `N#Cc1ccc(Nc2nc(N)cc(Cc3c(Cl)cccc3Cl)n2)cc1`
Result: 1

Problem: Recall and state the measured IC50 for `Cc1cc(C#N)cc(C)c1Oc1ccnc(Nc2ccc(C#N)cc2)n1` .
Result: 1.1

Problem: Give IC50 for the following compound: `N#Cc1ccc(Nc2cc(N)nc(Cc3c(Cl)cccc3Cl)n2)cc1`
Result: 452

Problem: Please report IC50 for the following compound: `Cc1cc(C#N)cc(C)c1Nc1nc(Nc2ccc(C#N)cc2)ncc1Br`
Result: 0.4

Problem: Provide only the value of recorded IC50 for `Cc1cc(C#N)cc(C)c1Nc1nc(Nc2ccc(C#N)cc2)ncc1Cl`
Result: 1.2

Problem: Quick one: give measured IC50 for `Cc1cnc(Nc2ccc(C#N)cc2)nc1Nc1c(C)cc(C#N)cc1C`
Result: 0.8

###

# Test method notes: Inhibition of HIV1 reverse transcriptase K103N mutant infected in human MT4 cells assessed as protection against virus-induced cytopathic effect by MTT assay
Measured quantity: IC50 (µM)
Report as a plain number; the unit µM is understood.

Solved entries:
{"columns": ["Smiles string", "Reading"],
 "data": [
  ["Cc1cc(C#N)cc(C)c1Nc1nc(Nc2ccc(C#N)cc2)ncc1Cl", 0.0009],
  ["Cc1cc(C#N)cc(C)c1Nc1nc(Nc2ccc(C#N)cc2)ncc1C#N", 0.0026],
  ["Cc1cc(C#N)cc(C)c1Oc1nc(Nc2ccc(C#N)cc2)ncc1[N+](=O)[O-]", 0.01],
  ["N#Cc1ccc(Nc2nc(N)nc(Cc3c(Cl)cccc3Cl)n2)cc1", 0.04]
]}

Then there is this compound:
Problem: Please list IC50 recorded for the compound `N#Cc1ccc(Nc2nc(N)cc(Cc3c(Cl)cccc3Cl)n2)cc1`
Result: 0.012

###

# Test method notes: Inhibition of HIV1 3B reverse transcriptase infected in human MT2 cells assessed as protection against virus-induced cytopathic effect by MTT assay
Measured quantity: EC50 (nM)
Use nM as the unit, but write only the number.

Problem: Please report the measured EC50 for `N#C/C=C/c1cc(F)c(Nc2nc(NCCCN3CCOCC3)nc(Nc3ccc(C#N)cc3)n2)c(F)c1`
Result: 5.7

###

// pEC50 lookup, one value per entry
# Test method notes: Inhibition of wild-type HIV1 3B reverse transcriptase infected in human MT4 cells assessed as protection against virus-induced cytopathic effect measured after 4 days by MTT assay
pEC50 (log units): -log10 of the concentration in mol/L.

{"columns": ["Smiles string", "pEC50"],
 "data": [
  ["N#Cc1ccc(Nc2nccc(Oc3ccc4ccccc4c3Br)n2)cc1", 8.62]
]}

Next, consider the following compound.
Problem: Please list pEC50 recorded for the compound `N#Cc1ccc(Nc2nccc(Oc3ccc4cc(C#N)ccc4c3Br)n2)cc1`
Result: 8.70

###

# Test method notes: Inhibition of HIV1 reverse transcriptase K103N mutant infected in human MT4 cells assessed as protection against virus-induced cytopathic effect measured 5 days post infection by MTT assay
Measured quantity: pEC50
A value of pEC50 is the negative decimal logarithm of a concentration given in moles per litre.

Problem: Please supply the value of reported pEC50 for the item `Cc1cc(C#Cc2cccnc2)cc(C)c1Oc1ccnc(Nc2ccc(C#N)cc2)n1`
Result: 8.00

###

# Lookup of reported EC50 keyed by entry
# Test method notes: Inhibition of HIV1 reverse transcriptase K103N/Y181C double mutant infected in human MT2 cells assessed as protection against virus-induced cytopathic effect by MTT assay
Dear colleague, please send the value followed by its unit.

{"columns": ["Smiles string", "EC50"],
 "data": [
  ["N#C/C=C/c1cc(F)c(Nc2nc(NCCCN3CCOCC3)nc(Nc3ccc(C#N)cc3)n2)c(F)c1", "16 nM"],
  ["Cc1cc(/C=C/C#N)cc(C)c1Nc1nc(Nc2ccc(C#N)cc2)nc(OCCCN2CCOCC2)n1", "1.3 nM"]
]}

Problem: # return recorded EC50 for input `Cc1cc(C)c(Nc2cc(OCCCN3CCOCC3)nc(Nc3ccc(C#N)cc3)n2)c(C)c1`
Result: 38 nM

###

Measured EC50 values are reported for all entries that follow.
# Test method notes: Inhibition of HIV1 reverse transcriptase K103N/Y188C double mutant infected in human MT4 cells assessed as protection against virus-induced cytopathic effect measured 5 days post infection by MTT assay
Number in nM, nothing else.

{"columns": ["Smiles string", "Reading"],
 "data": [
  ["CCN(c1nc(Nc2ccc(C#N)cc2)nc(Oc2c(C)cc(C)cc2C)n1)N1CCOCC1", 650]
]}

Problem: Specify reported EC50 for the compound shown: `Cc1cc(C#Cc2cccnc2)cc(C)c1Oc1ccnc(Nc2ccc(C#N)cc2)n1`
Result: 935

###

# Lookup of reported pIC50 keyed by entry
# Test method notes: Inhibition of HIV1 reverse transcriptase L100I/K103N double mutant infected in human MT4 cells assessed as protection against virus-induced cytopathic effect by MTT assay
# pIC50 = -log10(concentration in molar units)

Sample records with pIC50:
{"columns": ["Smiles string", "Measured quantity", "Reading"],
 "data": [
  ["Cc1cc(C#N)cc(C)c1Oc1ccnc(Nc2ccc(C#N)cc2)n1", "pIC50", 6.10],
  ["CC(=O)Nc1cnc(Nc2ccc(C#N)cc2)nc1Oc1c(C)cc(C#N)cc1C", "pIC50", 6.69],
  ["Cc1cc(C#N)cc(C)c1Nc1ccnc(Nc2ccc(C#N)cc2)n1", "pIC50", 5.96],
  ["Cc1cc(C#N)cc(C)c1Oc1nc(Nc2ccc(C#N)cc2)ncc1N", "pIC50", 6.55],
  ["Cc1cc(C#N)cc(C)c1Nc1nc(Nc2ccc(C#N)cc2)ncc1C#N", "pIC50", 6.51]
]}

Problem: Please give measured pIC50 of the following entry: `Cc1cc(Br)cc(C)c1Sc1ccnc(Nc2ccc(C#N)cc2)n1`
Result: 5.41

###

# Test method notes: Inhibition of HIV1 reverse transcriptase Y181C mutant infected in human MT4 cells harboring GFP by scanning microscopic analysis
# pEC50 values compiled below
Convention used: pEC50 is expressed as -log10 of the molar concentration.

Example cases with answers are listed next.
{"columns": ["Smiles string", "Reading"],
 "data": [
  ["N#C/C=C/c1ccc(Nc2cc(NCCCN3CCOCC3)nc(Nc3ccc(C#N)cc3)n2)cc1", 7.06],
  ["CN(C)CCNC(=O)c1cnc(Nc2ccc(C#N)cc2)nc1Nc1ccc(/C=C/C#N)cc1", 7.80]
]}

Problem: Given the compound `N#C/C=C/c1ccc(Nc2cc(NCCc3ccc(S(N)(=O)=O)cc3)nc(Nc3ccc(C#N)cc3)n2)cc1` , write its reported pEC50.
Result: 7.01

Problem: Look up and state reported pEC50 for `N#C/C=C/c1ccc(Nc2nc(Nc3ccc(C#N)cc3)ncc2C(=O)NCCCN2CCCC2)cc1`
Result: 7.70

###

# Test method notes: Inhibition of HIV1 reverse transcriptase Y181C mutant infected in human MT4 cells assessed as protection against virus-induced cytopathic effect by MTT assay
Measured quantity: log10(IC50) (log10 of the value in nM)
Recorded IC50 (log10, nM)

Below: 6 compounds and their reported log10(IC50).
{"columns": ["Smiles string", "log10(IC50)"],
 "data": [
  ["C=Cc1cnc(Nc2ccc(C#N)cc2)nc1Nc1c(C)cc(C)cc1C", 1.56],
  ["Cc1cc(C#N)cc(C)c1Nc1ccnc(Nc2ccc(C#N)cc2)n1", 0.85],
  ["Cc1cc(C#N)cc(C)c1Nc1nc(Nc2ccc(C#N)cc2)ncc1Br", 0.98],
  ["Cc1cc(C#N)cc(C)c1Nc1nc(Nc2ccc(C#N)cc2)ncc1Cl", 1.15],
  ["N#Cc1ccc(Nc2nc(N)cc(Cc3c(Cl)cccc3Cl)n2)cc1", 2.24],
  ["Cc1cc(Br)cc(C)c1Sc1ccnc(Nc2ccc(C#N)cc2)n1", 1.83]
]}

Problem: Tell me log10(IC50) reported for `Cc1cc(C#N)cc(C)c1Oc1nc(Nc2ccc(C#N)cc2)ncc1[N+](=O)[O-]`
Result: 2.48

Problem: Please look at this compound and report its log10(IC50): `Cc1cc(C#N)cc(C)c1Oc1nc(Nc2ccc(C#N)cc2)ncc1N`
Result: 0.97

Problem: Input `N#Cc1ccc(Nc2nc(N)nc(Cc3c(Cl)cccc3Cl)n2)cc1` , output reported log10(IC50).
Result: 2.30

Problem: Give log10(IC50) for `Cc1cc(C#N)cc(C)c1Nc1nc(Nc2ccc(C#N)cc2)ncc1C#N`
Result: 1.88

Problem: Consider the compound `Cc1cc(C#N)cc(C)c1Oc1ccnc(Nc2ccc(C#N)cc2)n1` and give its recorded log10(IC50).
Result: 1.57

Problem: Give log10(IC50) for the following compound: `Cc1cnc(Nc2ccc(C#N)cc2)nc1Nc1c(C)cc(C#N)cc1C`
Result: 1.08

Values from BindingDB's records for doi:10.1016/j.ejmech.2018.09.013
